FYI, the data here is from patent US5545639A.

# Tested on: MCF7/ADR-RES
# PROCEDURE TEXT: Dose response of growth, tumor cell line
# Assay type: cell-based
# CONDITION CONTEXT: Homo sapiens, miscellaneous, read-out: 50% Growth (Relative to Control)
# Description: Indeed, 70% of the cell lines were shown not only to experience precluded growth, but cell death, when exposed to less then 100 μM of the active ingredient.
MEASURED METRIC: IC50 (nM)
The reply should contain only the number, in nM.

Note down IC50 recorded for ClCc1ccc2ccc3ccc(CCl)nc3c2n1 1930

====

# System: NCI-H23
# PROCEDURE TEXT: Dose response of growth, tumor cell line
# Type: cell-based
# CONDITION CONTEXT: Homo sapiens; NCI-H23, non-small cell lung cancer; read-out: 50% Growth (Relative to Control)
MEASURED METRIC: IC50

Determine its reported IC50: ClCc1ccc2ccc3ccc(CCl)nc3c2n1 1870 nM
